- Experiment Summary: Phase I single ascending dose (SAD) study: plasma and urine pharmacokinetics
- Assay type: in vivo, human
- Run Conditions: human, plasma, oral, 40 mg, 40 mg single dose, fasted, plasma; read-out: tmax, Mean

{"columns": ["Compound", "Unit Tag", "Tmax"],
 "data": [
  ["CC(=O)c1nn(CC(=O)N2[C@H](C(=O)Nc3nc(Br)ccc3C)C[C@@]3(C)C[C@@H]23)c2ccc(-c3cnc(C)nc3)cc12 [Compound 1]", "h", 1.75]
]}

---

- Experiment Summary: Multiple ascending dose (MAD) study: multiple-dose pharmacokinetics
- Format: in vivo, human
- Run Conditions: human, plasma, oral, 200 mg, 200 mg BID × 14 Days, Day 1; read-out: AUC(0-12), Mean
Parameter Measured: AUC(0-t)

{"columns": ["Smiles Entry", "Value Observed"],
 "data": [
  ["CC(=O)c1nn(CC(=O)N2[C@H](C(=O)Nc3nc(Br)ccc3C)C[C@@]3(C)C[C@@H]23)c2ccc(-c3cnc(C)nc3)cc12", "1820 ng·h/mL"]
]}

---

- Experiment Summary: Multiple ascending dose (MAD) study: multiple-dose pharmacokinetics
- Assay type: in vivo, human
- Run Conditions: human, plasma, oral, 200 mg, 200 mg BID, Day 7, 0 hr post-dose (144 h); read-out: Pre-dose (trough) plasma concentration, Mean

{"columns": ["Smiles Entry", "concentration at 144 h / ng/mL"],
 "data": [
  ["CC(=O)c1nn(CC(=O)N2[C@H](C(=O)Nc3nc(Br)ccc3C)C[C@@]3(C)C[C@@H]23)c2ccc(-c3cnc(C)nc3)cc12", 385]
]}

---

- Experiment Summary: Multiple ascending dose (MAD) study: multiple-dose pharmacokinetics
- Type: in vivo, human
- Run Conditions: human, plasma, oral, 80 mg, 80 mg BID, all 12 hr (evening) troughs; read-out: Mean C(12), steady-state trough

{"columns": ["Smiles Entry", "Unit Tag", "concentration at 12 hr"],
 "data": [
  ["CC(=O)c1nn(CC(=O)N2[C@H](C(=O)Nc3nc(Br)ccc3C)C[C@@]3(C)C[C@@H]23)c2ccc(-c3cnc(C)nc3)cc12", "ng/mL", 45.9]
]}

---

- Experiment Summary: Phase I single ascending dose (SAD) study: plasma and urine pharmacokinetics
- Format: in vivo, human
- Run Conditions: human, plasma, oral, 120 mg, 120 mg single dose, fasted, plasma; read-out: AUC0-inf, Mean

{"columns": ["Smiles Entry", "AUC(0-inf) [ng·h/mL]"],
 "data": [
  ["CC(=O)c1nn(CC(=O)N2[C@H](C(=O)Nc3nc(Br)ccc3C)C[C@@]3(C)C[C@@H]23)c2ccc(-c3cnc(C)nc3)cc12", 1710]
]}

---

- Experiment Summary: Multiple ascending dose (MAD) study: multiple-dose pharmacokinetics
- Type: in vivo, human
- Run Conditions: human, plasma, oral, 120 mg BID, all 12 hr (evening) troughs; read-out: Mean C(12), steady-state trough

{"columns": ["Molecule", "concentration at 12 h"],
 "data": [
  ["CC(=O)c1nn(CC(=O)N2[C@H](C(=O)Nc3nc(Br)ccc3C)C[C@@]3(C)C[C@@H]23)c2ccc(-c3cnc(C)nc3)cc12 [Compound 1]", "~80 ng/mL"]
]}

---

- Experiment Summary: Multiple ascending dose (MAD) study: multiple-dose pharmacokinetics
- Type: in vivo, human
- Run Conditions: human, plasma, oral, 80 mg BID, Day 14, 0 hr post-dose (312 h); read-out: Pre-dose (trough) plasma concentration, Mean

{"columns": ["Smiles Entry", "concentration at 312 h"],
 "data": [
  ["CC(=O)c1nn(CC(=O)N2[C@H](C(=O)Nc3nc(Br)ccc3C)C[C@@]3(C)C[C@@H]23)c2ccc(-c3cnc(C)nc3)cc12", "0.085 µg/mL"]
]}
